Origin of values: paper PMC10797614

- assay.explanation: tandem ring-opening/ring-closing metathesis (ROM-RCM) of side-chain norbornene with two Glu allyl esters to bicyclic peptide; Hoveyda-Grubbs 2nd gen (M720), two portions (library procedure)
- test.context: the molecule shown is the open-chain precursor; 28-membered ring; 1,2-dichloroethane; resin; 70.0 °C
ring closure, conversion by HPLC (% (semiquantitative, mass spectrometry)) values for the compounds below.
A bare number is all that is needed in reply.

substance_smiles=C=CCOC(=O)CC[C@H](NC(=O)[C@H](CC(C)C)NC(=O)[C@@H]1CCCN1C(=O)[C@H](C)NC(=O)[C@H](CCCCNC(=O)[C@@H]1C[C@H]2C=C[C@@H]1C2)NC(=O)[C@@H](NC(=O)[C@@H](NC(=O)[C@H](Cc1ccccc1)NC(=O)[C@H](CCC(=O)OCC=C)NC(=O)OCC1c2ccccc2-c2ccccc21)[C@@H](C)CC)C(C)C)C(N)=O result_number=10

Turning now to a further record.
Per the records, this compound ( C=CCOC(=O)CC[C@H](NC(=O)[C@@H]1CCCN1C(=O)[C@H](CC(C)C)NC(=O)[C@H](C)NC(=O)[C@H](CCCCNC(=O)[C@H]1C[C@H]2C=C[C@@H]1C2)NC(=O)[C@@H](NC(=O)[C@@H](NC(=O)[C@H](Cc1ccccc1)NC(=O)[C@H](CCC(=O)OCC=C)NC(=O)OCC1c2ccccc2-c2ccccc21)[C@@H](C)CC)C(C)C)C(N)=O ) has ring closure, conversion by HPLC (% (semiquantitative, mass spectrometry)) equal to 2
